Tested on: Vero E6 cells
RUN DESCRIPTION: Cytotoxicity / cell viability in Vero E6 cells
Type: cell-based
CONDITION INFO: listed as ebselen (DMSO)
ENDPOINT LABEL: CC50

Given O=c1c2ccccc2[se]n1-c1ccccc1 , state its recorded CC50.
> 1000 µM
